// cross-study collection: IC50 for Tyrosine-protein kinase JAK2 (Homo sapiens, UniProt O60674)

Recorded IC50 for `NC(=O)c1cnc2[nH]ccc2c1NN1CCC[C@@H](C(=O)NCC(F)(F)F)C1` with Tyrosine-protein kinase JAK2 (Homo sapiens, UniProt O60674), please?
11.6 nM

Recorded IC50 for `CCOC(=O)Cn1cc(Nc2ncc3ccn(CC4CCCCC4)c3n2)cn1` with Tyrosine-protein kinase JAK2 (Homo sapiens, UniProt O60674), please?
< 100 nM

Recorded IC50 for `Cn1cc(-c2cc3ncc(F)n3c(-c3cnn(C4(CC#N)CN(S(=O)(=O)C(F)(F)F)C4)c3)n2)cn1` with Tyrosine-protein kinase JAK2 (Homo sapiens, UniProt O60674), please?
< 10 nM

Recorded IC50 for `N#CCC1(n2cc(-c3ncnc4[nH]ccc34)cn2)CN(C2CCN(C(=O)c3cc(CN4CCC4)nc(C(F)(F)F)n3)CC2)C1` with Tyrosine-protein kinase JAK2 (Homo sapiens, UniProt O60674), please?
10 to 50 nM
